Below, each of the binders is paired with its reported Kd value.
# system: T1, RSV F subtype A, furin-cleaved ectodomain stabilized in the prefusion conformation (DS-Cav1) (Respiratory syncytial virus subtype A, UniProt P03420 26-524)
# T1 construct: extracellular domain; Trimeric soluble antigen; also called Prefusion subtype A
# assay notes: BLI, IgG on AHQ sensor, 100 nM antigen
assay metric: Kd (nM)

binder	value unit	readout number
ADI-18902 (antibody, V domains shown, full-length IgG from yeast) VH: QVQLQESGPGLVKPSETLSLTCTVSGGSISGYYWSWIRQPPGRGLEWIGFIYYSGSTSYDSSLKSRVTISVDTSKNQFSLNLSSVTAADTAVYYCARSTWDYGDHFPFDYWGQGTLVTVSS VL: SYELTQPPSVSVAPGKTARITCGGNNIGIKDVHWYQLRPGQAPVLVISYDSDRPSGIPERFSGSNSGNTATLTISRVEAGDEADYFCQVWDSSPDHPYVFGTGTKLTVL	nM	0.107
ADI-18877 (antibody, V domains shown, full-length IgG from yeast; also called Antibody Number 234; Ab # 234) VH: QVQLVQSGTEVKKPGASVKVSCKAAGYTFSNYGVSWVRQAPGQGLEWMGWISAYNGNTKFAQKVQGRLTMTTDTSTSTAYMELRNLRSDDTAVYYCARESGATAAAMFDYWGQGTLVTVSS VL: ETTLTQSPLSLPVTLGQPASISCRSSQSLEYSDGNIYLSWFQQRPGQSPRRLIYKVSHRDSGVPDRFSGSGSGTDFTLKIARVEAEDVAVYYCMQAIHWPRTFGQGTKVDIK	nM	0.303
ADI-18932 (antibody, V domains shown, full-length IgG from yeast) VH: QVQLQESGPGLVRPSQTLSLTCSASGAAINSGDYYWSWIRQAPGRGLEWIGSISNRGVTDYNPSLKSRVIISADTSKNQFSLRLTSVTATDTAVYYCARDLGTLAFDPYYYYGIDVWGQGTTVTVSS VL: DIRMTQSPATLSLSPGERATLSCRASQSVSRHLAWYQQKPGQAPRLLIYDASYRVTGVPDRFSGSGSGTDFTLTISSLESEDFAIYFCQQRSTWPTFGQGTKVEIK	nM	0.917
